Here, each record is paired with measured inhibition at 30 µM data.
System: TNFα production in RAW 264.7 macrophage cell line
assay.comment: Mouse TNF alpha quantification assay (LPS-stimulated macrophages, ELISA)
Format: cell-based
condition.parameters: RAW264.7, RAW 264.7 murine leukemia virus transformed macrophage cell lines, LPS stimulation, read-out: TNF-α % Inhibition at 30 μM
value.kind: inhibition at 30 µM

compound="O=C(COc1ccccc1)Nc1nnc(-c2ccccn2)[nH]1 [drawing 1993]" measurement_target="TNFα production in RAW 264.7 macrophage cell line" experimental_result=0%
compound="COCCNc1nc(-c2cn(C)cn2)nc2sc(C)c(-c3ccccc3)c12 [drawing 2412]" measurement_target="TNFα production in RAW 264.7 macrophage cell line" experimental_result="26 to 50%"
compound="OC1CCN(c2nc(-c3ccccn3)nc3scc(-c4ccccc4)c23)CC1 [drawing 2156]" measurement_target="TNFα production in RAW 264.7 macrophage cell line" experimental_result="1 to 25%"
compound="O=C(Nc1nnc(-c2ccccn2)[nH]1)C1CC1c1ccc(F)cc1 (stereo not drawn) [drawing 1974]" measurement_target="TNFα production in RAW 264.7 macrophage cell line" experimental_result="1 to 25%"
compound="O=S(=O)(Oc1cc(C(F)(F)F)cc(C(F)(F)F)c1)N1CCc2ccccc2C1 [drawing 2062]" measurement_target="TNFα production in RAW 264.7 macrophage cell line" experimental_result=0%
compound="O=C(Nc1nnc(-c2ccccn2)[nH]1)c1ccn(-c2cccc(F)c2)n1 [drawing 1938]" measurement_target="TNFα production in RAW 264.7 macrophage cell line" experimental_result=0%
compound="Oc1ccc(C2(c3cccc(Cl)c3)CCCC2)cc1 [drawing 2055]" measurement_target="TNFα production in RAW 264.7 macrophage cell line" experimental_result="76 to 100%"
compound="Oc1nc(-c2ccccn2)nc2c(CC3CCNC3)csc12 (stereo not drawn) [drawing 2353]" measurement_target="TNFα production in RAW 264.7 macrophage cell line" experimental_result="1 to 25%"
compound="COCCNc1nc(-c2ccccn2)nc(-c2cccc(OCCN(C)C)c2)c1Oc1ccccc1 [drawing 2356]" measurement_target="TNFα production in RAW 264.7 macrophage cell line" experimental_result="1 to 25%"
compound="COc1cccc(CN2CCN(C(=O)c3csc4c(O)nc(-c5ccccn5)nc34)CC2)c1 [drawing 2188]" measurement_target="TNFα production in RAW 264.7 macrophage cell line" experimental_result=0%
compound="O=C(c1csc2c(O)nc(-c3ccccn3)nc12)N1CCNC(c2ccccc2Cl)C1 (stereo not drawn) [drawing 2216]" measurement_target="TNFα production in RAW 264.7 macrophage cell line" experimental_result=0%
compound="O=C(CCc1c[nH]c2ccccc12)Nc1nnc(-c2ccccn2)[nH]1 [drawing 1941]" measurement_target="TNFα production in RAW 264.7 macrophage cell line" experimental_result=0%
compound="O=C(Cc1cccs1)Nc1nnc(-c2ccccn2)[nH]1 [drawing 1953]" measurement_target="TNFα production in RAW 264.7 macrophage cell line" experimental_result="1 to 25%"
compound="COC(=O)c1cncc(C(=O)Nc2nnc(-c3ccccn3)[nH]2)c1 [drawing 1981]" measurement_target="TNFα production in RAW 264.7 macrophage cell line" experimental_result="1 to 25%"
compound="CN(C)Cc1ccc(F)c(-c2csc3c(O)nc(-c4ccccn4)nc23)c1 [drawing 2293]" measurement_target="TNFα production in RAW 264.7 macrophage cell line" experimental_result="51 to 75%"
compound="Oc1nc(-c2ccccn2)nc2c(-c3ccsc3)csc12 [drawing 2267]" measurement_target="TNFα production in RAW 264.7 macrophage cell line" experimental_result="76 to 100%"
compound="O=C(c1csc2c(O)nc(-c3cccnc3)nc12)N1CCNC(Cc2cccc(F)c2)C1 (stereo not drawn)" measurement_target="TNFα production in RAW 264.7 macrophage cell line" experimental_result="1 to 25%"
compound="COc1ccccc1-c1csc2c(O)nc(-c3ccccn3)nc12 [drawing 2262]" measurement_target="TNFα production in RAW 264.7 macrophage cell line" experimental_result="51 to 75%"
